Test system: K-562 leukemia
Test: NCI tumour cell line growth inhibition, 48 h
propertyLabel: TGI

These solved cases illustrate the format of a correct answer.
COc1ccc(-c2nn3ncccc3c2-c2ccnc(Nc3ccc(Cl)c(C(F)(F)F)c3)n2)cc1 :: > 25 µM
Cc1ccc(F)cc1NC(=O)O/N=C(\Cl)C(C)C :: 5.72 µM
CCC(CCCN)Nc1cc(OC)cc2cccnc12 (stereo not given) :: > 100 µM
COC1=CC(=O)c2ccccc2C1(CCC=C(C)C)C1=NC(C)(C)CO1 (stereo not given) :: > 100 µM
COC(=O)/C=C/c1ccccc1N=[S@](C)(=O)c1ccc(C)cc1 :: > 100 µM
O=C(CNc1nncs1)NO :: > 100 µM
COc1ccc(-c2nc3sc(C)cn3c2/C=C/C(=O)c2cc(OC)c(OC)c(OC)c2)cc1 :: > 100 µM
Cc1ccc(S(=O)(=O)N/C(=C\C=C\c2ccccc2)C(=O)C(C)(C)C)cc1 :: > 100 µM
CC(C)CCCC(C)[C@H]1CCC2[C@@H]3CCC4Cc5nc6c(nc5C[C@]4(C)C3CC[C@@]21C)CC1CC[C@@H]2C(C[C@@H](O)[C@@]3(C)C2C[C@@H]2OC4(CCC(C)CO4)C(C)[C@@H]23)[C@@]1(C)C6 (stereo not given in full) :: > 100 µM
Cc1ccc([N+](=O)[O-])cc1S(=O)(=O)Nc1ccc(C2=NN(c3ccc([N+](=O)[O-])cc3[N+](=O)[O-])C(c3ccccc3)C2)cc1 (stereo not given) :: > 100 µM

Report TGI on K-562 leukemia for this entry: OC(C1CCC=NN1C(O)(C(F)(F)F)C(F)(F)F)(C(F)(F)F)C(F)(F)F (stereo not given)
> 10 µM

Enter measured TGI, system K-562 leukemia, for the compound shown: COc1ccc(N[C@H](CS(=O)c2ccc(C)cc2)c2ccc(F)cc2)cc1 (stereo not given in full)
> 100 µM

Report TGI from K-562 leukemia testing of CC[C@H](C)N(CCN)C(=O)c1cc2ccccc2c(-c2ccccc2Cl)n1
12.6 µM

Provide K-562 leukemia TGI reading for COc1ccc2[nH]c(C(=O)N3CC(CCl)c4ccc(N)cc43)cc2c1 (stereo not given) .
0.494 µM

Provide K-562 leukemia TGI reading for N=C(N)SCCON1C(=O)c2ccccc2C1=O .
> 100 µM

Return reported TGI for target or system K-562 leukemia, item O=C(NNc1nc(Cl)nc(N2CCN(C(c3ccccc3)c3ccccc3)CC2)n1)c1ccccc1 .
> 100 µM

Please report TGI with K-562 leukemia for item c1ccc2c(-c3cnc(-c4c[nH]c5ccccc45)cn3)c[nH]c2c1 .
> 100 µM

Given CCCCCc1cc(OC(=O)c2c(O)cc(OC)cc2CCCCC)cc(O)c1C(=O)O , report its TGI on K-562 leukemia.
> 100 µM

Tell me its TGI on K-562 leukemia: N#Cc1c(-c2nc3ccccc3s2)c(=O)oc2cc(O)ccc12
> 100 µM

Lab note: record TGI of O=C1CC(O)C=C1Nc1ccc(Cl)cc1 (stereo not given) tested on K-562 leukemia.
> 100 µM

----------
Test system: SR leukemia
Test: NCI tumour cell line growth inhibition, 48 h; in the data active = GI50 below about 0.43 µM; inactive = the rest
Choose one outcome from this list and give only that: Yes for active, No for inactive

Solved entries:
COc1cc(-c2nn(-c3ccc(NC(=O)c4ccc(Cl)c(Cl)c4)cc3)cc2-c2ccncc2)ccc1Cl :: No
N=C1C(c2nc(-c3ccc(Br)cc3)cs2)=C(O)CN1Cc1cccnc1 :: No
O=[N+]([O-])C1C(c2ccccc2)C12c1ccccc1-c1ccccc12 (stereo not given) :: Yes
CC(C)C[C@H](NC(=O)[C@H](Cc1cccc2ccccc12)NC(=O)N1CCOCC1)B(O)O :: Yes
CCOC(=O)c1ccc(NC(=O)N2CC(C)OC(C)C2)cc1 (stereo not given) :: No
COc1cc(C2CC(c3ccc(C)cc3)=NN2C=O)ccc1Oc1ccnc2cc(Cl)ccc12 (stereo not given) :: No
COc1nc(N(C)O)nc(N(C)O)n1 :: Yes
CC(=O)O[C@H]1CC[C@@]2(C)C(=CC[C@@H]3[C@@H]2CC[C@]2(C)C(c4cccnc4)=CC[C@@H]32)C1 :: No
CCN(CC)CCOc1nc2ccc(OC)cc2c2c1-c1ccc(OC)cc1C2=O :: Yes
COc1cc(C2C=C(c3cccc(NC(C)=O)c3)Nc3ncnn32)cc(OC)c1OC (stereo not given) :: No

Dear all, I need the recorded test outcome for CN1CC[C@@H](c2c(O)cc(O)c3c(=O)cc(-c4ccccc4Cl)oc23)[C@@H](O)C1 , thank you.
Yes

Recorded test outcome, item COc1ccc2cc(C(=O)/C=C/c3cc(OC)c(OC)c(OC)c3)ccc2c1
No

----------
Tested on: SF-539 CNS
Experiment: NCI tumour cell line growth inhibition, 48 h; in the data active = GI50 below about 0.43 µM; inactive = the rest
In this exercise, the only acceptable responses are active, inactive

CCN(CC)CCOc1nc2ccc(OC)cc2c2c1-c1ccc(OC)cc1C2=O :: inactive
CC(=O)Nc1ccc2c(c1)c(C1=C(c3cn(C)c4ccccc34)C(=O)NC1=O)cn2C :: inactive
COc1ccc(N=C2CSc3nnc(-c4cc(F)c(Cl)cc4Cl)n3N2)cc1 :: inactive
COc1cc(C2CC(c3ccc(C)cc3)=NN2C=O)ccc1Oc1ccnc2cc(Cl)ccc12 (stereo not given) :: inactive

Here's the next entry for you.
Kindly provide the recorded test outcome for the following compound: O=C1NCc2ccc3c(-c4cccc(Cl)c4)c[nH]c3c21
active

----------
System: HS 578T breast
Test: NCI tumour cell line growth inhibition, 48 h; in the data active = GI50 below about 0.43 µM; inactive = the rest
Parameter call: string, one of active, inactive

# example entries with known answers
COc1cc(C2C=C(c3cccc(NC(C)=O)c3)Nc3ncnn32)cc(OC)c1OC (stereo not drawn) :: active
COc1cc(C2CC(c3ccc(C)cc3)=NN2C=O)ccc1Oc1ccnc2cc(Cl)ccc12 (stereo not drawn) :: inactive
O=C(CCCCCCSc1nc(-c2ccccc2)cc(-c2ccc(Cl)cc2)n1)NO :: inactive

// outcome(item) with item = C=C1CC2(OC1=O)C(=O)N(CCCCCCCN1C(=O)C3(CC(=C)C(=O)O3)c3ccccc31)c1ccccc12 (stereo not drawn)
inactive

// return assay outcome for C=C1C(=O)O[C@H]2[C@H]1CC/C(Cn1cc(CNC(=O)Cc3cn(C(=O)c4ccc(Cl)cc4)c4ccc(OC)cc34)nn1)=C\CC[C@@]1(C)O[C@@H]21
inactive

Hi, sorry to bother you, what did the test record for C=C1C(=O)O[C@H]2[C@H]1CC/C(COC(=O)c1cc3cc(F)ccc3[nH]1)=C\CC[C@@]1(C)O[C@@H]21 ?
inactive

Look up the recorded call for Cc1ccc(CNc2c3ccccc3nc3ccccc23)cc1 in this test.
inactive

Give the logged outcome of this assay for the following compound: COc1cc(-c2nn(-c3ccc(NC(=O)c4ccc(Cl)c(Cl)c4)cc3)cc2-c2ccncc2)ccc1Cl
inactive

----------
Test system: DLD-1 colon
Test: NCI tumour cell line growth inhibition, 48 h
Reported TGI is given for each of the following compounds.

Some solved cases for reference:
CCOC(=O)C(=O)Nc1nc2c(s1)C(=O)c1ccccc1C2=O :: 31.8 µM
CC1=C(C(=O)Nc2ccccc2C)C(c2ccccc2)C(C(=O)Nc2ccccc2C)=C(C)N1 :: > 100 µM
O=C(CNc1nncs1)NO :: > 100 µM
O=C1C(=O)N(C(=O)c2ccc(Cl)c(Cl)c2)c2ccccc21 :: > 100 µM
O=C(c1ccccc1)C(c1ccccc1)C1(O)C(=O)Nc2c(Cl)cc(Cl)cc21 (stereo not given) :: 37.5 µM
COc1cc(OC)c([C@@H]2OC(=O)C3C2C(=O)O[C@H]3c2cc(OC)c(OC)cc2OC)cc1OC (stereo not given in full) :: > 100 µM
CCOC(=O)[C@@]1(C)C=C2O[C@@H]3OC4(CCCCC4)O[C@@H]3C2=C2C(O)=CC=C(O)[C@]21C(=O)OC :: > 68 µM
COc1ccc2c3c1OC1CC(O)C=CC31CCN(C)C2 (stereo not given) :: > 54.1 µM

Determine its reported TGI: COc1cc(OC)c2c(O)cc(CC(C)O)cc2c1 (stereo not given)
> 100 µM

Note down TGI recorded for Cc1nc2c(nc1C)C(=O)c1cc(O)ccc1C2=O
> 86.8 µM

Item O=C(O)c1c(-c2cccc3ccccc23)sc(-c2cccc3ccccc23)c1C(=O)O : provide TGI
> 100 µM

Annotate the compound CCc1cccc(C(C)C)c1NC(=O)C(=O)C(Cc1nc2ccccc2[nH]c1=O)C(=O)OC (stereo not given) with its measured TGI.
> 100 µM

Consider the compound COc1cccc2cc(C)c(C(=O)c3ccccc3)nc12 and give its recorded TGI.
> 100 µM

Return the recorded TGI value; entry: CCOC(=O)/C(O)=C1\C(=O)N(C)C(=O)C1c1ccc(OC)c(OC)c1 (stereo not given)
> 100 µM

For Nc1ccn(CCOC(=O)c2ccccc2)c(=O)n1 , write its TGI.
> 100 µM
